Give measured inhibition of growth at 20 µg/mL for each item. Keep answers brief.
System: Pectobacterium carotovorum
Experiment: Growth inhibition of Pectobacterium carotovorum at 20 ug/ml after 12 hr by turbidometric analysis
Assay type: functional
Conditions: read-out: GI
Express it in %; write the number only.

In: Please report the measured inhibition of growth at 20 µg/mL for CN=C=S [METHYLISOTHIOCYANATE]
Out: 29.9

In: Please report the measured inhibition of growth at 20 µg/mL for CCCN=C=S [PROPYL ISOTHIOCYANATE]
Out: 47

In: Please report the measured inhibition of growth at 20 µg/mL for `CCCCCCCN=C=S`
Out: 84.1

In: Please report the measured inhibition of growth at 20 µg/mL for CCCCN=C=S [BUTYL ISOTHIOCYANATE]
Out: 84.4

In: Please report the measured inhibition of growth at 20 µg/mL for CCN=C=S [ETHYL ISOTHIOCYANATE]
Out: 11.7
